# system tested: Carbonic anhydrase 9 (Homo sapiens, UniProt Q16790)
endpoint: Ki (nM)
Respond with the bare value in nM.

Query block: Give Ki (Carbonic anhydrase 9 (Homo sapiens, UniProt Q16790)) of the following molecule: Cc1ccc(S(=O)(=O)NC(=O)NCCc2ccc(S(N)(=O)=O)cc2)cc1
Result block: 9.2

* * *

# system tested: Carbonic anhydrase 12 (Homo sapiens)
# experiment description: Inhibition of human recombinant carbonic anhydrase 12 preincubated for 15 mins by stopped flow CO2 hydration method
pKi: −log10 of the molar value.
Criterion: pKi meeting or surpassing 8. Met: Y. Not met: N.

Query block: Check if pKi >= 8 (inclusive). Item: NS(=O)(=O)c1ccc(CCNC(=O)NS(=O)(=O)c2ccc(Cl)cc2)cc1
Result block: Y

Query block: Can Cc1cc(=O)oc2cc(NC(=O)NS(=O)(=O)c3ccccc3)ccc12 be said to have pKi at or above 8?
Result block: N

Query block: Please check the record NS(=O)(=O)c1ccc(CCNC(=O)NS(=O)(=O)c2ccccc2Cl)cc1 and state if its pKi is at or above 8.
Result block: Y

* * *

# system tested: Carbonic anhydrase 1 (Homo sapiens)
# Sequence (P00915 whole entry): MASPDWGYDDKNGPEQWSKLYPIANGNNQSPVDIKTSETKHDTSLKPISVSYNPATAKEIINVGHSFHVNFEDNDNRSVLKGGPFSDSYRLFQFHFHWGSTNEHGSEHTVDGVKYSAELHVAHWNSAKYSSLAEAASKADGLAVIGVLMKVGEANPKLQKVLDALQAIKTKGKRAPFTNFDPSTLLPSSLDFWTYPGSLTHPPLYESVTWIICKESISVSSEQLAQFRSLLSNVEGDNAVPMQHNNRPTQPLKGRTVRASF
# experiment description: Inhibition of human recombinant carbonic anhydrase 1 preincubated for 15 mins by stopped flow CO2 hydration method
pKi: −log10 of the molar value.
Rule: pKi of 7 or more gives yes; anything lower gives no.

Query block: # bool: pKi of Cc1cc(=O)oc2cc(NC(=O)NS(=O)(=O)c3ccc(F)cc3)ccc12 >= 7
Result block: no

Query block: Threshold query (pKi >= 7) on NS(=O)(=O)c1ccc(CCNC(=O)NS(=O)(=O)c2ccccc2)cc1
Result block: yes

Query block: Answer whether pKi of Cc1ccc(S(=O)(=O)NC(=O)Nc2ccc3c(C)cc(=O)oc3c2)cc1 is greater than or equal to 7.
Result block: no

Query block: Exam item: decide whether the reported pKi for Cc1ccccc1S(=O)(=O)NC(=O)Nc1ccc2c(C)cc(=O)oc2c1 is at least 7.
Result block: no

Query block: Form field: pKi at least 7? Entry: Cc1cc(=O)oc2cc(NC(=O)NS(=O)(=O)c3ccc(Cl)cc3)ccc12
Result block: no

Query block: hey, is pKi for this one >= 7? Cc1cc(=O)oc2cc(NC(=O)NS(=O)(=O)c3ccccc3)ccc12
Result block: no

Query block: Reported pKi at or above 7? NS(=O)(=O)c1ccc(CCNC(=O)NS(=O)(=O)c2ccc(Cl)cc2)cc1
Result block: yes

Query block: Record Cc1cc(=O)oc2cc(NC(=O)NS(=O)(=O)c3ccccc3Cl)ccc12 ; criterion: pKi no lower than 7. Met?
Result block: no

Query block: Reported pKi reaches at least 7 for NS(=O)(=O)c1ccc(CCNC(=O)NS(=O)(=O)c2ccccc2Cl)cc1 ?
Result block: yes

* * *

# system tested: Carbonic anhydrase 12 (Homo sapiens, UniProt O43570)
# Sequence (O43570 whole entry): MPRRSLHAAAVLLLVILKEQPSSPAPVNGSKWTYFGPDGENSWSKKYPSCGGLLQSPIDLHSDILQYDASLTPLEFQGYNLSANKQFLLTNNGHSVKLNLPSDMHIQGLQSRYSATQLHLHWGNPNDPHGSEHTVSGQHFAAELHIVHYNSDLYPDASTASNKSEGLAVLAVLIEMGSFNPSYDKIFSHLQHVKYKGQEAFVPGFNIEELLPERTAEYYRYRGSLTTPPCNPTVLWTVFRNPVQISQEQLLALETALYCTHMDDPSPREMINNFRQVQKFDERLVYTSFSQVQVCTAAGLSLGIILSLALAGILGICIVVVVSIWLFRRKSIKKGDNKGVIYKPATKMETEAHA
# experiment description: Inhibition of human recombinant carbonic anhydrase 12 preincubated for 15 mins by stopped flow CO2 hydration method
Record form. Attribute: pKi. Fill in for each entry.
Recall that pKi is obtained by taking minus log10 of the concentration measured in molar.

Query block: Would you mind telling me what pKi value was observed for NS(=O)(=O)c1ccc(CCNC(=O)NS(=O)(=O)c2ccc(F)cc2)cc1 ?
Result block: 8.17

Query block: Recorded pKi of Cc1cc(=O)oc2cc(NC(=O)NS(=O)(=O)c3ccccc3Cl)ccc12 , please.
Result block: 8.12

Query block: Which pKi is listed for Cc1cc(=O)oc2cc(NC(=O)NS(=O)(=O)c3ccc(F)cc3)ccc12 ?
Result block: 8.11

Query block: What does the data say about its pKi? Entry: Cc1ccc(S(=O)(=O)NC(=O)Nc2ccc3c(C)cc(=O)oc3c2)cc1
Result block: 8.03

Query block: Endpoint output: pKi of Cc1ccc(S(=O)(=O)NC(=O)NCCc2ccc(S(N)(=O)=O)cc2)cc1 . Value?
Result block: 8.22

Query block: Record request: pKi value, item Cc1ccccc1S(=O)(=O)NC(=O)Nc1ccc2c(C)cc(=O)oc2c1
Result block: 8.05

Query block: Fill in: pKi of Cc1ccccc1S(=O)(=O)NC(=O)NCCc1ccc(S(N)(=O)=O)cc1 is ___
Result block: 8.19

Query block: # pKi lookup, item NS(=O)(=O)c1ccc(CCNC(=O)NS(=O)(=O)c2ccccc2)cc1
Result block: 8.23

Source listed as ChEMBL document CHEMBL3351299.
